The entries below are paired with their reported pEC50.
# Assay system: sGC enzyme (Homo sapiens, UniProt Q02108+Q02153)
# Construct: incorporated into these cells detect cGMP formed by the compounds stimulating the sGC enzyme; host or cells: HEK293 cells stably expressing GloSensor 40F cGMP biosensor
# Assay info: cGMP GloSensor cell-based assay, 384-well format
# Conditions used: HEK293 cells expressing GloSensor 40F cGMP; 10 μM DETA-NONOate; normalized to 30 μM Compound Y; compounds in Table IA; read-out: Glo-sensor AbsEC50
pEC50: −log10 of the molar value.

Query: What value of measured pEC50 is listed for C=COCc1n[nH]c(-c2nn(Cc3ccccc3F)c3ncccc23)n1 [Compound I-117] ?
Reply: 6.00 to 7.00

Query: What value of measured pEC50 is listed for Fc1ccccc1Cn1nc(-c2nc(C(F)(F)Cl)n[nH]2)c2cccnc21 [Compound I-65] ?
Reply: > 7.00

Query: What value of measured pEC50 is listed for COCCC(O)c1n[nH]c(-c2nn(Cc3ccccc3F)c3ncccc23)n1 (stereo not drawn) [Compound I-116] ?
Reply: 6.00 to 7.00

Query: What value of measured pEC50 is listed for Cc1ncc(Cn2nc(-c3nc(C(F)(F)F)n[nH]3)c3ccccc32)cn1 [Compound I-62] ?
Reply: > 7.00

Query: What value of measured pEC50 is listed for Fc1cccc(Cc2nn(-c3nc(C(F)(F)F)n[nH]3)c3cccnc23)c1 [Compound I-120] ?
Reply: 6.00 to 7.00

Now consider a different molecule.
Query: What value of measured pEC50 is listed for Cc1n[nH]c(-c2nn(Cc3ccccc3F)c3ncccc23)n1 [Compound I-60] ?
Reply: > 7.00

----------
# Assay system: sGC enzyme (Homo sapiens, UniProt Q02108+Q02153)
# Construct: incorporated into these cells detect cGMP formed by the compounds stimulating the sGC enzyme; host or cells: HEK293 cells stably expressing GloSensor 40F cGMP biosensor
# Assay info: cGMP GloSensor cell-based assay, 384-well format
# Conditions used: Glo-sensor AbsEC50, HEK293 cells expressing GloSensor 40F cGMP; 10 μM DETA-NONOate; normalized to 30 μM Compound Y; compounds in Table IA
Parameter measured: EC50

Query: What value of measured EC50 is listed for Fc1ccccc1Cn1nc(-c2ncn[nH]2)c2cccnc21 [Compound I-25] ?
Reply: 100 to 1000 nM

----------
# Assay info: Rat cerebrospinal fluid (CSF) pharmacokinetic properties
# Assay type: in vivo
# Conditions used: CSF, male Sprague-Dawley rats, PO 10 mg/kg in PEG400, 1 h post-dosing, compounds in Table IB, read-out: CSF Conc. (nM @ 1 h)
Parameter measured: concentration at 1 h (nM)

A: Fc1ccc2c(Cc3cncnc3)nc(-c3nc(C(F)(F)F)n[nH]3)n2c1 [Compound I-12]
B: Cc1n[nH]c(-c2nc(Cc3cncnc3)c3ccccn23)n1 [Compound I-5]
Query: Form: Entry with minimum concentration at 1 h (choose one): A / B Response format: the label of the selected entry.
Reply: B

----------
The entries below are paired with their reported EC50.
# Assay system: sGC enzyme (Homo sapiens, UniProt Q02108+Q02153)
# Construct: incorporated into these cells detect cGMP formed by the compounds stimulating the sGC enzyme; host or cells: HEK293 cells stably expressing GloSensor 40F cGMP biosensor
# Sequence (Q02153 1-619): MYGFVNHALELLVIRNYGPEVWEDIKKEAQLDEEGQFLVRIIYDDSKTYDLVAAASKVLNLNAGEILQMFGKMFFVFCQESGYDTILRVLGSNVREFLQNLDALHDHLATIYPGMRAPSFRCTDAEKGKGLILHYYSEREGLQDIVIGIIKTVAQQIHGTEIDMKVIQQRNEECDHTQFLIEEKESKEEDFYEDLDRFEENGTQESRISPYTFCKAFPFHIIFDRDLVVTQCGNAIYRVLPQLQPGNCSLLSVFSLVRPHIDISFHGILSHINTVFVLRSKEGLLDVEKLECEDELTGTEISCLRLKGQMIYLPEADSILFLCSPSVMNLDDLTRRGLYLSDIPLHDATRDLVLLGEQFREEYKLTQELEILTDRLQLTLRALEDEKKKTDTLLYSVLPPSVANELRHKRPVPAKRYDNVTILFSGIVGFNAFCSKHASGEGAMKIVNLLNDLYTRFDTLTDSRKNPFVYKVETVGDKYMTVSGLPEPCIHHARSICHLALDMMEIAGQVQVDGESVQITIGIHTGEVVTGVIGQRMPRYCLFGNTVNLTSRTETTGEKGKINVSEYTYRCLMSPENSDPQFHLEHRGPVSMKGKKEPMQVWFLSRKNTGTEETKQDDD
# Sequence (Q02108 1-690): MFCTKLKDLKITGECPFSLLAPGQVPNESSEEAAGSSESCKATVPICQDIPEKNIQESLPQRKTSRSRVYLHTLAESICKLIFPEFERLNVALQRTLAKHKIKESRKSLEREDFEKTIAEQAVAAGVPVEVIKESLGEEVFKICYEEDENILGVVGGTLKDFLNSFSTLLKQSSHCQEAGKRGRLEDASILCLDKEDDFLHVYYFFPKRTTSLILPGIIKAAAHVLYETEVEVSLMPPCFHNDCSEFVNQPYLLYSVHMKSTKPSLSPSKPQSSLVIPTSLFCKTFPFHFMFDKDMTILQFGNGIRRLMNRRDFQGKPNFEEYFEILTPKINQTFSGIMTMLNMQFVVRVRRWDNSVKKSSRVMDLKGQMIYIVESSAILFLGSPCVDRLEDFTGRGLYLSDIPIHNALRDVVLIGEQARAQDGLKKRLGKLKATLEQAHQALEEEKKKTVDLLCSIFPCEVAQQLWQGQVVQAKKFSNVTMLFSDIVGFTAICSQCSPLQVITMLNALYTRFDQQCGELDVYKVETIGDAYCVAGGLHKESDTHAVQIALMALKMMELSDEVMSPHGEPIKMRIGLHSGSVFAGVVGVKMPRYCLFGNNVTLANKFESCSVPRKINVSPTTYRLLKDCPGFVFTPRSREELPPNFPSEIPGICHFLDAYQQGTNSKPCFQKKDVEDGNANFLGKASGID
# Assay info: cGMP GloSensor cell-based assay, 384-well format
# Conditions used: HEK293 cells expressing GloSensor 40F cGMP; 10 μM DETA-NONOate; normalized to 30 μM Compound Y; compounds in Table IA; read-out: Glo-sensor AbsEC50

In the examples that follow, each entry is paired with its recorded EC50.
Query: What value of measured EC50 is listed for Fc1ccccc1Cn1nc(-c2nc(N3CCOCC3)n[nH]2)c2cccnc21 ?
Reply: 100 to 1000 nM

Query: What value of measured EC50 is listed for FC(F)(F)CCn1nc(-c2nc(C(F)(F)F)n[nH]2)c2cccnc21 ?
Reply: > 1000 nM

Query: What value of measured EC50 is listed for CN(C)C(=O)c1n[nH]c(-c2nn(Cc3ccccc3F)c3ncccc23)n1 ?
Reply: 100 to 1000 nM

Query: What value of measured EC50 is listed for FC(F)(F)c1n[nH]c(-c2nn(Cc3cncnc3)c3ncccc23)n1 ?
Reply: < 100 nM

Query: What value of measured EC50 is listed for Fc1ccccc1Cn1nc(-c2nc(C3(c4ccccc4)CC3)n[nH]2)c2cccnc21 ?
Reply: > 1000 nM

Continuing:
Query: What value of measured EC50 is listed for FC(F)(F)c1n[nH]c(-c2nn(CCC(F)(F)C(F)(F)F)c3cc(Cl)ccc23)n1 ?
Reply: 100 to 1000 nM

Query: What value of measured EC50 is listed for CC(=O)Nc1n[nH]c(-c2nn(Cc3ccccc3F)c3ncccc23)n1 ?
Reply: 100 to 1000 nM

Query: What value of measured EC50 is listed for Fc1ccccc1Cn1nc(-c2nc(CC(F)(F)F)n[nH]2)c2cccnc21 ?
Reply: < 100 nM

Query: What value of measured EC50 is listed for FC(F)(F)c1n[nH]c(-c2nn(Cc3ccccc3)c3ncccc23)n1 ?
Reply: < 100 nM

Query: What value of measured EC50 is listed for CC(C)(C)c1n[nH]c(-c2nn(Cc3ccccc3F)c3ncccc23)n1 ?
Reply: < 100 nM

Query: What value of measured EC50 is listed for FC(F)c1n[nH]c(-n2nc(Cc3ccccc3)c3ncccc32)n1 ?
Reply: > 1000 nM

Query: What value of measured EC50 is listed for Fc1ccccc1Cn1nc(-c2nc(C(F)F)n[nH]2)c2cccnc21 ?
Reply: < 100 nM

Query: What value of measured EC50 is listed for Fc1ccccc1Cn1nc(-c2nc(Cn3ccnc3)n[nH]2)c2cccnc21 ?
Reply: 100 to 1000 nM

Query: What value of measured EC50 is listed for FC(F)(F)c1n[nH]c(-c2nn(Cc3cncnc3)c3cc(Cl)ccc23)n1 ?
Reply: < 100 nM

Query: What value of measured EC50 is listed for Fc1cc(F)cc(Cn2nc(-c3nc(C(F)(F)F)n[nH]3)c3cccnc32)c1 ?
Reply: < 100 nM

Query: What value of measured EC50 is listed for Fc1ccccc1Cn1nc(-c2nc(OCC(F)(F)F)n[nH]2)c2cccnc21 ?
Reply: > 1000 nM

Source: patent US12435080B2
